- assayedTarget: SRC (Homo sapiens, UniProt P12931)
- Sequence (P12931 whole entry): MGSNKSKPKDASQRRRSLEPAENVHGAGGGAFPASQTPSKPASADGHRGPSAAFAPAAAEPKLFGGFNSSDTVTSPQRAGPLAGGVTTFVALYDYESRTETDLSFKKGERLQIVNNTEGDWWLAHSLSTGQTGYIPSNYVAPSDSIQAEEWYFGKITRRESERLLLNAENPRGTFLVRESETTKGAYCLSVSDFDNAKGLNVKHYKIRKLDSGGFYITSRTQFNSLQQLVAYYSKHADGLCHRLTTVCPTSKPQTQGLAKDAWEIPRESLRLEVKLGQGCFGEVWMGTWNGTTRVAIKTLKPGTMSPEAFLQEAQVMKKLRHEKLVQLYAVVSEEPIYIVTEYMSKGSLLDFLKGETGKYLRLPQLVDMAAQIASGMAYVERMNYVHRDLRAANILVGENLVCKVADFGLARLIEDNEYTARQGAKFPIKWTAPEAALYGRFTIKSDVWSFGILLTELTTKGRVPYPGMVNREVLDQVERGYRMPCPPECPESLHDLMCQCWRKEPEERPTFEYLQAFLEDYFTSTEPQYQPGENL
- experimentNotes: Inhibition of a panel of kinases, in vitro HotSpot kinase assay: SRC
- Type: biochemical
- studyConditions: D-compounds panel data; 1 μM ATP
In this section, each of the molecules is paired with its reported IC50.

{"molecule": "C[C@H]1CC[C@@H](NC(=O)c2ccc(C3CC3)cc2)CN1c1cnc(C(N)=O)c(Nc2cnn(C)c2)n1", "IC50": "0.01 to 0.1 µM"}
{"molecule": "C[C@@H]1[C@H](NC(=O)c2ccc(C3CC3)cc2F)CCCN1c1cnc(C(N)=O)c(Nc2ccc(CN3CCN(C)CC3)cn2)n1", "IC50": "> 10 µM"}
{"molecule": "C[C@@H]1[C@H](N2Cc3cc(Br)ccc3C2=O)CCCN1c1cnc(C(N)=O)c(Nc2cnn(C)c2)n1", "IC50": "0.01 to 0.1 µM"}
{"molecule": "C[C@@H]1[C@H](NC(=O)c2ccc(C3(O)CCCC3)cc2)CCCN1c1cnc(C(N)=O)c(Nc2cnn(C)c2)n1", "IC50": "0.01 to 0.1 µM"}
{"molecule": "Cc1cc(Nc2nc(N3CCC[C@H](c4ncc(-c5ccccc5)[nH]4)C3)cnc2C(N)=O)sn1", "IC50": "0.1 to 1 µM"}
{"molecule": "C[C@@H]1[C@H](NC(=O)c2ccc(C(C)(C)C)cc2)CCCN1c1nnc(C(N)=O)c(Nc2cnn(C)c2)n1", "IC50": "0.01 to 0.1 µM"}
{"molecule": "C[C@@H]1[C@H](NC(=O)c2ccc(C3CC3)cc2F)CCCN1c1cnc(C(N)=O)c(Nc2ccc(N3CCN(C4CCCC4)CC3)cc2)n1", "IC50": "0.01 to 0.1 µM"}
{"molecule": "CC1COc2cc(C(=O)N[C@@H]3CCCN(c4cnc(C(N)=O)c(Nc5cnn(C)c5)n4)[C@@H]3C)ccc2C1 (some centres unmarked)", "IC50": "0.01 to 0.1 µM"}
{"molecule": "Cc1nsc(Nc2nc(N3CCC[C@@H](NC(=O)N(C)C)[C@H]3C)cnc2C(N)=O)c1C", "IC50": "1 to 10 µM"}
{"molecule": "Cn1cc(Nc2nc(N3CCC[C@@H](NC(=O)c4ccc(C5CC5)cc4)C3)cnc2C(N)=O)cn1", "IC50": "0.1 to 1 µM"}
{"molecule": "C[C@@H]1[C@H](NC(=O)c2ccc3c(c2)CCC(C)(C)O3)CCCN1c1cnc(C(N)=O)c(Nc2cnn(C)c2)n1", "IC50": "0.01 to 0.1 µM"}
{"molecule": "CCN(C)C(=O)N[C@@H]1CCCN(c2cnc(C(N)=O)c(Nc3cnn(C)c3)n2)[C@@H]1C", "IC50": "0.1 to 1 µM"}
{"molecule": "C[C@@H]1[C@H](NC(=O)c2ccc(C3CC3)cc2)CCCN1c1cnc(C(N)=O)c(Nc2ccc(C3CCOCC3)cc2)n1", "IC50": "> 10 µM"}
{"molecule": "C[C@@H]1[C@H](NC(=O)c2ccc(C3CC3)cc2F)CCCN1c1cnc(C(N)=O)c(Nc2ccc(N3CCN(C)CC3)c(F)c2)n1", "IC50": "0.01 to 0.1 µM"}
